- measured target: IMP-1 (Serratia marcescens, UniProt P52699)
- Construct: made in house
- Sequence (P52699 19-246, looked up, species assumed): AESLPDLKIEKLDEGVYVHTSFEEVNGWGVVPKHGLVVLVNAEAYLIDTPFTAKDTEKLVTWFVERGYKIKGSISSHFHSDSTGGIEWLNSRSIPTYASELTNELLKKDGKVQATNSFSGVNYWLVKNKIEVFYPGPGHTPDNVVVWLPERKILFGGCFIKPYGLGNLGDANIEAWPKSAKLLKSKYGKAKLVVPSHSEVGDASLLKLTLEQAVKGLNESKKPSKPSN
- assay summary: In vitro inhibition assay (IPM hydrolysis)
- Format: biochemical
- experimental conditions: read-out: IC50 for IMP-1
measured endpoint: IC50

Incoming: I would be grateful if you could share the reported IC50 for C=C(CC(=O)O)C(=O)O [Itaconic acid, itaconic acid] .
Outgoing: > 1000 µM

* * *

- measured target: IMP-1 (Serratia marcescens, UniProt P52699)
- Construct: made in house
- assay summary: In vitro inhibition assay (IPM hydrolysis)
- Assay type: biochemical
measured endpoint: IC50 (µM)
Answers are plain numbers, in µM.

# compound, measured target, IC50, µM
measured = [
    ("C=C(C(=O)O)C(CCCCCCO)C(=O)O (centres unmarked) [10-HHIA, 10-hydroxyhexylitaconic acid]", "IMP-1 (Serratia marcescens, UniProt P52699)", 31.6),
]

# next compound below
Incoming: I would be grateful if you could share the reported IC50 for C=C(C(=O)O)C(CCCCC(C)O)C(=O)O (centres unmarked) [9-HHIA, 9-hydroxyhexylitaconic acid] .
Outgoing: 50.5

* * *

Notes on pKi obtained with IMP-1 (Serratia marcescens).
Answers are plain numbers, as −log10 of the molar value.

# compound, pKi
rows = [
    ("C=C(C(=O)O)C(CCCCCCO)C(=O)O (centres unmarked) [10-HHIA, 10-hydroxyhexylitaconic acid]", 5.30),
]

# next compound below
Incoming: I would be grateful if you could share the reported pKi for C=C(C(=O)O)C(CCCCC(C)O)C(=O)O (centres unmarked) [9-HHIA, 9-hydroxyhexylitaconic acid] .
Outgoing: 4.95

* * *

- measured target: IMP-6 (Serratia marcescens, UniProt P52699, S214G)
- Sequence (P52699 19-246 S214G): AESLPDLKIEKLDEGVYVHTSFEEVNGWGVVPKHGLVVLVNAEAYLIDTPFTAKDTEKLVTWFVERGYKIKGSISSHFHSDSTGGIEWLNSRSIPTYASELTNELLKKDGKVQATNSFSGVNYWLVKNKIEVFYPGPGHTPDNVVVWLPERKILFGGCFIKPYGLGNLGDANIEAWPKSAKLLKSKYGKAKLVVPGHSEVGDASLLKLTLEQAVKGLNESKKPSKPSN
- assay summary: In vitro inhibition assay (IPM hydrolysis)
Can you tell me Ki for the items I'm about to list?
Put your answer as a value accompanied by its unit after it.

# compound, Ki
data = [
    ("C=C(C(=O)O)C(CCCCC(C)O)C(=O)O (centres unmarked) [9-HHIA, 9-hydroxyhexylitaconic acid]", "27.8 µM"),
]

# next compound below
Incoming: Lookup: Ki / IMP-6 (Serratia marcescens, UniProt P52699, S214G) / C=C(C(=O)O)C(CCCCCCO)C(=O)O (centres unmarked) [10-HHIA, 10-hydroxyhexylitaconic acid]
Outgoing: 21 µM

Provenance of the data: paper PMC10913484
